# Assay System: T1, biotinylated 6His tag-AviTag-linked mature human IL-33 (residues 112 to 270) (human, UniProt O95760 112-270, biotin on the AviTag portion (BirA))
# T1 construct: made in E. coli; also called biotinylated human IL-33 protein
# T1 sequence: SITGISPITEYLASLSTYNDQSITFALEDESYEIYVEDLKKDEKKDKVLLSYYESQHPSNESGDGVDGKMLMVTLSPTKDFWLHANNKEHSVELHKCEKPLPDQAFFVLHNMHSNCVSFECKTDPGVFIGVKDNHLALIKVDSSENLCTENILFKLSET
# Assay Overview: SPR, IL-33 on chip, Fab supernatant as analyte
Quick reference for koff among some binders
Lab book: enter the figure in s⁻¹, no units written.

Worked examples, 3 binders total:
{"columns": ["Binder", "Unit Descriptor", "koff"],
 "data": [
  ["A26-1F02 (Fab) (Fab, V domains shown, Fab secreted by E. coli, tested as culture supernatant; also called V18) VH: EVQLLESGGGLVQPGGSLRLSCAASGFTFSNYYMHWVRQAPGKGLEWVSSISARSSYLYYADSVKGRFTISRDNSKNTLYLQMNSLRAEDTAVYYCARLATRHVAFDIWGQGTLVTVSS VL: QSVLTQPPSASGTPGQRVTISCSGSSSNIGNNAVNWYQQLPGTAPKLLIYASNMRRPGVPDRFSGSKSGTSASLAISGLRSEDEADYYCEAWDDSQKAVVFGGGTKLTVL", "s⁻¹", "1e-05"],
  ["A25-2C02 (Fab) (Fab, V domains shown, Fab secreted by E. coli, tested as culture supernatant; also called V15) VH: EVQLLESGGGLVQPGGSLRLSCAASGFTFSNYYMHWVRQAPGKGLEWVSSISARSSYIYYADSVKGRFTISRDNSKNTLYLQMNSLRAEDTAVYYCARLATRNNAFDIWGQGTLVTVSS VL: QSVLTQPPSASGTPGQRVTISCSGSSSNIGRNAVNWYQQLPGTAPKLLIYASNMRVSGVPDRFSGSKSGTSASLAISGLRSEDEADYYCWAWDDSQKVGVFGGGTKLTVL", "s⁻¹", "1e-05"],
  ["A12-1H08 (Fab) (Fab, V domains shown, Fab secreted by E. coli, tested as culture supernatant; also called V4) VH: EVQLLESGGGLVQPGGSLRLSCAASGFTFSDYYMDWVRQAPGKGLEWVSSISRASSYVYYADSVKGRFTISRDNSKNTLYLQMNSLRAEDTAVYYCARDIGGMDVWGQGTLVTVSS VL: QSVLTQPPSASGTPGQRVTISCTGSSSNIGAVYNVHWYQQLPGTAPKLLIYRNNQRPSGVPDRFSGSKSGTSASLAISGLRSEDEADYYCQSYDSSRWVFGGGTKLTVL", "s⁻¹", "1e-05"]
]}

[ask] State the recorded koff for this entry: A28-2H06 (Fab) (Fab, V domains shown, Fab secreted by E. coli, tested as culture supernatant; also called V28) VH: EVQLLESGGGLVQPGGSLRLSCAASGFTFSNYYMHWVRQAPGKGLEWVSSISALSSYRYYADSVKGRFTISRDNSKNTLYLQMNSLRAEDTAVYYCARLATRRVAFDIWGQGTLVTVSS VL: QSVLTQPPSASGTPGQRVTISCSGSSSNIGNNAVNWYQQLPGTAPKLLIYASNMRRLGVPDRFSGSKSGTSASLAISGLRSEDEADYYCAAWDDSQKALVFGGGTKLTVL
[reply] 1e-05

[ask] State the recorded koff for this entry: A13-1F05 (Fab) (Fab, V domains shown, Fab secreted by E. coli, tested as culture supernatant; also called V5) VH: EVQLLESGGGLVQPGGSLRLSCAASGFTFSDYYMNWVRQAPGKGLEWVSSISRYSGYIYYADSVKGRFTISRDNSKNTLYLQMNSLRAEDTAVYYCARDIGGMDVWGQGTLVTVSS VL: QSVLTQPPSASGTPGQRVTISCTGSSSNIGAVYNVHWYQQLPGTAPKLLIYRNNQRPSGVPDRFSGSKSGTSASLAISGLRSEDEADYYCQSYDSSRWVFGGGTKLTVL
[reply] 1.32e-05

[ask] State the recorded koff for this entry: A28-2G07 (Fab) (Fab, V domains shown, Fab secreted by E. coli, tested as culture supernatant; also called V27) VH: EVQLLESGGGLVQPGGSLRLSCAASGFTFSSYYMHWVRQAPGKGLEWVSSISARSSYIYYADSVKGRFTISRDNSKNTLYLQMNSLRAEDTAVYYCARLATRRIAFDIWGQGTLVTVSS VL: QSVLTQPPSASGTPGQRVTISCSGSSSNIGRNAVNWYQQLPGTAPKLLIYASNMRRPGVPDRFSGSKSGTSASLAISGLRSEDEADYYCSAWDDSQKAGVFGGGTKLTVL
[reply] 1e-05

[ask] State the recorded koff for this entry: A25-2E04 (Fab) (Fab, V domains shown, Fab secreted by E. coli, tested as culture supernatant; also called V11) VH: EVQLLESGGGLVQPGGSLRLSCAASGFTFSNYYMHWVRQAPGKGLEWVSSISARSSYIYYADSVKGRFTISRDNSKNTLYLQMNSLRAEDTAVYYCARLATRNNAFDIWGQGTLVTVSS VL: QSVLTQPPSASGTPGQRVTISCSGSCSNIGRNAVNWYQQLPGTAPKLLIYASNMRVIGVPDRFSGSKSGTSASLAISGLRSEDEADYYCEAWDDSQKGVVFGGGTKLTVL
[reply] 1.27e-05
